Measured pKi (UniProt:P22303)
Schema: pKi number; meaning minus log10 of the concentration expressed in molar units.

1. N[C@@H](Cc1c[nH]c2ccccc12)C(=O)NCCC(=O)Nc1c2c(nc3ccccc13)CCCC2; 4.47
2. CC(C)(C)OC(=O)N[C@@H](CCC(=O)NCCNc1c2c(nc3ccccc13)CCCC2)C(=O)NCCNc1c2c(nc3ccccc13)CCCC2; 7.81

# pKi of N[C@@H](CCC(=O)NCCNc1c2c(nc3ccccc13)CCCC2)C(=O)NCCNc1c2c(nc3ccccc13)CCCC2 = 8.21

According to the records, this compound CN[C@@H](Cc1ccccc1)C(=O)NCC(=O)Nc1c2c(nc3ccccc13)CCCC2 displays pKi of 5.20

Reported pKi for N[C@@H](Cc1c[nH]c2ccccc12)C(=O)NCCNc1c2c(nc3ccccc13)CCCC2 was 6.55

* * *

Measurement record for Cholinesterase (Homo sapiens, UniProt P06276); quantity recorded: Ki.
Enter your answer as a number in nM; do not include the unit.

Field: example entries. Status: answers known.
1) CN[C@@H](Cc1c[nH]c2ccccc12)C(=O)NCC(=O)Nc1c2c(nc3ccccc13)CCCC2; 1760
2) N[C@@H](Cc1c[nH]c2ccccc12)C(=O)NCCNc1c2c(nc3ccccc13)CCCC2; 1.33
3) CN[C@@H](Cc1ccccc1)C(=O)NCC(=O)Nc1c2c(nc3ccccc13)CCCC2; 1200
4) N[C@@H](Cc1c[nH]c2ccccc12)C(=O)NCC(=O)Nc1c2c(nc3ccccc13)CCCC2; 251

Could you now look at the following molecule, please?
Observed Ki, Cholinesterase (Homo sapiens, UniProt P06276), CC(C)(C)OC(=O)N[C@@H](CCC(=O)NCCNc1c2c(nc3ccccc13)CCCC2)C(=O)NCCNc1c2c(nc3ccccc13)CCCC2 : 12.6

* * *

Tgt: Acetylcholinesterase (Homo sapiens)
Sequence (P22303 whole entry): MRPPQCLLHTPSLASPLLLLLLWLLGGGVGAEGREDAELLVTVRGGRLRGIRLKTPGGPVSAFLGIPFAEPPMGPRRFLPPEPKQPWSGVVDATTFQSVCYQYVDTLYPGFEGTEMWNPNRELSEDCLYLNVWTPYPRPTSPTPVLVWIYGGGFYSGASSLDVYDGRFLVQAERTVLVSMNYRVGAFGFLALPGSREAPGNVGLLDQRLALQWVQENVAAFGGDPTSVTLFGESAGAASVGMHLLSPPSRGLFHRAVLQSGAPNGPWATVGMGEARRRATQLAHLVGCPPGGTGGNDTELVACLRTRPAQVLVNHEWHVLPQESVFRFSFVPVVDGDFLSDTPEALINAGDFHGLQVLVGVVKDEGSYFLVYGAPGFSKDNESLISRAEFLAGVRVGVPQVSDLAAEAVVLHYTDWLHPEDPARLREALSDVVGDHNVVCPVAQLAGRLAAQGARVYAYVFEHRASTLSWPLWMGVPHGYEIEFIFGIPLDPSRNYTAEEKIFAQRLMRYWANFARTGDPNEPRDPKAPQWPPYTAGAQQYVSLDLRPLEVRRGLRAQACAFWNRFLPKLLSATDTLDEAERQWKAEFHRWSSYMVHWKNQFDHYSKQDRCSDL
Labelling: Ki reported below 3 µM becomes rule met; at or above becomes rule not met.

Exam item: Strictly below 3 µM in Ki? CN[C@@H](Cc1c[nH]c2ccccc12)C(=O)NCC(=O)Nc1c2c(nc3ccccc13)CCCC2
Marked response: rule not met

Exam item: Input CC(C)(C)OC(=O)N[C@@H](Cc1c[nH]c2ccccc12)C(=O)NCCNc1c2c(nc3ccccc13)CCCC2 ; condition: Ki strictly below 3 µM. Does it hold?
Marked response: rule met

Exam item: # TODO verify Ki < 3 µM strictly for this compound: N[C@@H](Cc1c[nH]c2ccccc12)C(=O)NCC(=O)Nc1c2c(nc3ccccc13)CCCC2
Marked response: rule met

* * *

Tgt: UniProt P22303
Measured Quantity: Ki (µM)
Field format: number, assumed µM, no unit text.

Some solved cases for reference:
1. CC(C)(C)OC(=O)N[C@@H](Cc1c[nH]c2ccccc12)C(=O)NCCC(=O)Nc1c2c(nc3ccccc13)CCCC2; 7.97
2. O=C(NCCCCCNc1c2c(nc3ccccc13)CCCC2)[C@@H]1CCCN1CCNc1c2c(nc3ccccc13)CCCC2; 0.00675
3. N[C@@H](Cc1ccccc1)C(=O)NCC(=O)Nc1c2c(nc3ccccc13)CCCC2; 1.91
4. O=C(CNC(=O)[C@@H]1Cc2ccccc2CN1)Nc1c2c(nc3ccccc13)CCCC2; 4.13

Reported Ki for N[C@@H](Cc1ccc2ccccc2c1)C(=O)NCC(=O)Nc1c2c(nc3ccccc13)CCCC2 was 11.2
